Tested on: Escherichia coli TOP10
Assay: shrunken log2 fold change of peptide-encoding DNA abundance (4.5 h post-induction vs induction); higher = less antimicrobial activity (less host growth inhibition)
Conditions: time post-induction: 4.5 h; library: site-saturation at positions 5, 18, 19, 20
value_type: shrunken log2 fold change
One number for each entry.

RRIRHRPPRLPRPRPRPKKAPRP	0.0601

// for each sequence in input: emit shrunken log2 fold change
1. RRIRIRPPRLPRPRPRPTTCPRP
2. RRIRCRPPRLPRPRPRPHPIPRP
3. RRIRRRPPRLPRPRPRPDVSPRP
4. RRIRWRPPRLPRPRPRPPTHPRP

Given back:
-0.447
-0.229
-0.0463
0.469

// for each sequence in input: emit shrunken log2 fold change
1. RRIRLRPPRLPRPRPRPSCRPRP
2. RRIRERPPRLPRPRPRPQNTPRP
3. RRIRPRPPRLPRPRPRPKPPPRP
4. RRIRTRPPRLPRPRPRPMAKPRP
5. RRIRMRPPRLPRPRPRPYFNPRP

Given back:
1. -0.116
2. -0.497
3. 0.538
4. 0.0153
5. -0.822

// for each sequence in input: emit shrunken log2 fold change
1. RRIRIRPPRLPRPRPRPSNVPRP
2. RRIRRRPPRLPRPRPRPWHGPRP
3. RRIRHRPPRLPRPRPRPRVQPRP
4. RRIRRRPPRLPRPRPRPKNNPRP
5. RRIRKRPPRLPRPRPRPSHHPRP

Given back:
[-0.683, -0.202, 0.054, -0.0641, 0.02]

// for each sequence in input: emit shrunken log2 fold change
1. RRIRYRPPRLPRPRPRPLRNPRP
2. RRIRTRPPRLPRPRPRPIWPPRP
3. RRIRYRPPRLPRPRPRPWWCPRP
4. RRIRGRPPRLPRPRPRPDCLPRP
5. RRIRQRPPRLPRPRPRPYKEPRP
6. RRIRGRPPRLPRPRPRPYENPRP

Given back:
[-0.277, 0.173, -0.139, 0.975, -0.0137, -0.0711]

// for each sequence in input: emit shrunken log2 fold change
1. RRIRWRPPRLPRPRPRPEDMPRP
2. RRIRIRPPRLPRPRPRPFLWPRP
3. RRIRCRPPRLPRPRPRPDTWPRP
4. RRIRSRPPRLPRPRPRPQFWPRP

Given back:
1: 0.282; 2: -0.0429; 3: -0.234; 4: 0.268

// for each sequence in input: emit shrunken log2 fold change
1. RRIRLRPPRLPRPRPRPARGPRP
2. RRIRPRPPRLPRPRPRPCIYPRP

Given back:
1: 0.565; 2: -0.536

// for each sequence in input: emit shrunken log2 fold change
1. RRIRTRPPRLPRPRPRPTVMPRP
2. RRIRGRPPRLPRPRPRPDPNPRP
3. RRIRTRPPRLPRPRPRPYCTPRP
4. RRIRERPPRLPRPRPRPWATPRP
5. RRIRFRPPRLPRPRPRPRQQPRP
6. RRIRPRPPRLPRPRPRPDDSPRP

Given back:
[-0.152, 0.522, 1.36, 0.127, 0.0599, 0.0427]

Asked: Please tell me the measured shrunken log2 fold change for `RRIRCRPPRLPRPRPRPYGNPRP` ; system: Escherichia coli TOP10.
Given back: -0.277

====

System: Escherichia coli TOP10
Assay: shrunken log2 fold change of peptide-encoding DNA abundance (4.5 h post-induction vs induction); higher = less antimicrobial activity (less host growth inhibition)
Conditions: time post-induction: 4.5 h; library: site-saturation at positions 5, 18, 19, 20
Bucketed by reported shrunken log2 fold change, buckets being low interval = under -0.1, middle interval = from -0.1 up to 0.07, high interval = 0.07 and over

Example cases with answers are listed next.
RRIRNRPPRLPRPRPRPFNRPRP	low interval
RRIRHRPPRLPRPRPRPSEHPRP	middle interval
RRIRYRPPRLPRPRPRPRLAPRP	high interval

Asked: Class label required: `RRIRYRPPRLPRPRPRPIAKPRP`
Given back: middle interval

Asked: Class label required: `RRIRPRPPRLPRPRPRPRVWPRP`
Given back: high interval

Asked: Class label required: `RRIRMRPPRLPRPRPRPLDLPRP`
Given back: middle interval

Asked: Class label required: `RRIRSRPPRLPRPRPRPYYMPRP`
Given back: low interval

Asked: Class label required: `RRIRGRPPRLPRPRPRPVYTPRP`
Given back: middle interval

====

System: Escherichia coli TOP10
Experiment: shrunken log2 fold change of peptide-encoding DNA abundance (4.5 h post-induction vs induction); higher = less antimicrobial activity (less host growth inhibition)
Conditions: time post-induction: 4.5 h; library: site-saturation at positions 5, 18, 19, 20
Would you kindly list shrunken log2 fold change for each of these sequences?
One number for each entry.

Some solved cases for reference:
RRIRCRPPRLPRPRPRPGFCPRP	0.124
RRIRFRPPRLPRPRPRPLSFPRP	0.675
RRIRCRPPRLPRPRPRPNIIPRP	0.796
RRIRLRPPRLPRPRPRPWCAPRP	-0.0114
RRIRVRPPRLPRPRPRPLEGPRP	0.138

// for each sequence in input: emit shrunken log2 fold change
1. RRIRVRPPRLPRPRPRPQDPPRP
2. RRIRYRPPRLPRPRPRPSQRPRP
3. RRIRSRPPRLPRPRPRPWDLPRP
4. RRIRLRPPRLPRPRPRPSRVPRP
5. RRIRMRPPRLPRPRPRPTIRPRP

Given back:
1: 0.0381; 2: -0.0178; 3: 0.056; 4: 0.00872; 5: 0.0273

// for each sequence in input: emit shrunken log2 fold change
1. RRIRLRPPRLPRPRPRPRKCPRP
2. RRIRERPPRLPRPRPRPYGFPRP
3. RRIRTRPPRLPRPRPRPWMRPRP
4. RRIRSRPPRLPRPRPRPKQRPRP
5. RRIRIRPPRLPRPRPRPFYWPRP
6. RRIRARPPRLPRPRPRPCGKPRP
7. RRIRPRPPRLPRPRPRPTIWPRP

Given back:
[0.309, -0.382, 0.556, 0.161, -0.12, 0.659, 0.349]

====

Tested on: Escherichia coli TOP10
Test: shrunken log2 fold change of peptide-encoding DNA abundance (4.5 h post-induction vs induction); higher = less antimicrobial activity (less host growth inhibition)
Conditions: time post-induction: 4.5 h; library: site-saturation at positions 5, 18, 19, 20
Would you kindly list shrunken log2 fold change for each of these sequences?
Give bare numbers.

Some solved cases for reference:
RRIRPRPPRLPRPRPRPVRNPRP	0.22
RRIRCRPPRLPRPRPRPYQHPRP	-0.381
RRIRVRPPRLPRPRPRPSLGPRP	0.0433
RRIRVRPPRLPRPRPRPQRMPRP	0.0511
RRIRPRPPRLPRPRPRPETVPRP	0.207
RRIRTRPPRLPRPRPRPWMKPRP	0.0159
RRIRVRPPRLPRPRPRPGMKPRP	-1.14

Asked: Please tell me the measured shrunken log2 fold change for `RRIRHRPPRLPRPRPRPNHHPRP` ; system: Escherichia coli TOP10.
Given back: -0.797

====

Test system: Escherichia coli TOP10
Test: shrunken log2 fold change of peptide-encoding DNA abundance (4.5 h post-induction vs induction); higher = less antimicrobial activity (less host growth inhibition)
Conditions: time post-induction: 4.5 h; library: site-saturation at positions 5, 18, 19, 20
Parameter threshold = -0.2. Response is Satisfied when shrunken log2 fold change meets or exceeds it, else Not satisfied.

RRIRKRPPRLPRPRPRPTEEPRP	Satisfied
RRIRGRPPRLPRPRPRPRGLPRP	Satisfied
RRIRYRPPRLPRPRPRPLMEPRP	Not satisfied
RRIRQRPPRLPRPRPRPISSPRP	Satisfied
RRIRIRPPRLPRPRPRPEQWPRP	Satisfied
RRIRVRPPRLPRPRPRPSTEPRP	Not satisfied

Next:
Asked: Answer whether shrunken log2 fold change of `RRIRWRPPRLPRPRPRPCFQPRP` is greater than or equal to -0.2.
Given back: Not satisfied

====

Test system: Escherichia coli TOP10;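 also: peptides expressed intracellularly from a pBAD plasmid library in pooled LB shake-flask culture, induced with 0.3% L-arabinose, DNA abundance read by NGS, three biological replicates, DESeq2 with apeglm shrinkage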
Experiment: shrunken log2 fold change of peptide-encoding DNA abundance (4.5 h post-induction vs induction); higher = less antimicrobial activity (less host growth inhibition)
Conditions: time post-induction: 4.5 h; library: site-saturation at positions 5, 18, 19, 20
Parameter threshold = -0.007. Response is TRUE when shrunken log2 fold change meets or exceeds it, else FALSE.

Example cases with answers are listed next.
RRIRLRPPRLPRPRPRPAELPRP	FALSE
RRIRDRPPRLPRPRPRPKWIPRP	FALSE
RRIRVRPPRLPRPRPRPPWFPRP	TRUE
RRIRMRPPRLPRPRPRPIREPRP	TRUE
RRIRERPPRLPRPRPRPTIPPRP	FALSE

Asked: Answer whether shrunken log2 fold change of `RRIRTRPPRLPRPRPRPGHPPRP` is greater than or equal to -0.007.
Given back: TRUE

Asked: Answer whether shrunken log2 fold change of `RRIRGRPPRLPRPRPRPDPDPRP` is greater than or equal to -0.007.
Given back: TRUE

Asked: Answer whether shrunken log2 fold change of `RRIRMRPPRLPRPRPRPETSPRP` is greater than or equal to -0.007.
Given back: TRUE
